Would you mind telling me the reported melting point of each entry?

>>> reported_value("C[C@@H](O)[C@H]1COCc2nc3c(N)nc4ccccc4c3n21")
"215.3 to 218.6 °C"
>>> reported_value("CC1COCc2nc3c(N)nc4ccc(OCc5ccccc5)cc4c3n21 (stereo in doubt)")
"100 to 120 °C"
>>> reported_value("Nc1nc2ccccc2c2c1nc1n2[C@@H](C2CCCCC2)COC1")
"228 to 230 °C"
>>> reported_value("Nc1nc2ccccc2c2c1nc1n2[C@@H](CO)COC1")
"238.6 to 239.8 °C"
>>> reported_value("CCOc1ccc2nc(N)c3nc4n(c3c2c1)[C@@H](C)COC4")
"187 to 188 °C"
>>> reported_value("Nc1nc2ccccc2c2c1nc1n2[C@@H](COCc2ccccc2)COC1")
"184.6 to 186.2 °C"
>>> reported_value("CC(C)[C@H]1COCc2nc3c(N)nc4cc(OCc5ccccc5)ccc4c3n21")
"227 to 229 °C"
>>> reported_value("C[C@H]1COCc2nc3c(N)nc4ccc(OCC(=O)N5CCOCC5)cc4c3n21")
"226 to 228 °C"
>>> reported_value("C[C@H]1COCc2nc3c(N)nc4ccccc4c3n21")
"280 to 282 °C"
>>> reported_value("C[C@H]1COCc2nc3c(N)nc4cc(OCc5ccccc5)ccc4c3n21")
"218 to 220 °C"

// each listed molecule needs a value for melting point
1. C[C@H]1COCc2nc3c(N)nc4ccc(OCc5cscn5)cc4c3n21
2. CC(C)(F)[C@H]1COCc2nc3c(N)nc4ccccc4c3n21
3. Nc1nc2ccccc2c2c1nc1n2[C@H](c2ccccc2)COC1
4. C[C@@H]1COCc2nc3c(N)nc4c(c3n21)CCCC4
5. C[C@H]1COCc2nc3c(N)nc4cc(CCC(=O)N5CCOCC5)ccc4c3n21
6. CC(C)[C@H]1COCc2nc3c(N)nc4cccnc4c3n21

1: 240 to 242 °C; 2: 242 to 244 °C; 3: 284 to 286 °C; 4: 209 to 211 °C; 5: 245 to 247 °C; 6: 194 to 196 °C
